# Test system: LXRa homodimer (NR concentration 270 nM)
# experimental details: PBM binding z-score (relative to random genomic background probes); higher = stronger binding; sequences stand for … in GC…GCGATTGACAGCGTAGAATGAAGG
Items are presented alongside their recorded PBM binding z-score.

[
  {
    "construct sequence": "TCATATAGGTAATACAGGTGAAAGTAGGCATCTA",
    "PBM binding z-score": 0.55
  },
  {
    "construct sequence": "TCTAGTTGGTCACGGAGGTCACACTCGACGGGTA",
    "PBM binding z-score": 2.58
  },
  {
    "construct sequence": "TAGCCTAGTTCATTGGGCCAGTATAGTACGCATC",
    "PBM binding z-score": -0.141
  },
  {
    "construct sequence": "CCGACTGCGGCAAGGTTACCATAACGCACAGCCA",
    "PBM binding z-score": 0.0346
  },
  {
    "construct sequence": "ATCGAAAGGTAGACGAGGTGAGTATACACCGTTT",
    "PBM binding z-score": -0.253
  },
  {
    "construct sequence": "CCTGTTAGTTGACCATAAGGGCAACCGAAGCTCG",
    "PBM binding z-score": 0.378
  },
  {
    "construct sequence": "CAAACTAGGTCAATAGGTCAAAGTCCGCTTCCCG",
    "PBM binding z-score": 3.46
  },
  {
    "construct sequence": "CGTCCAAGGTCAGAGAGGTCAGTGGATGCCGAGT",
    "PBM binding z-score": 3.43
  },
  {
    "construct sequence": "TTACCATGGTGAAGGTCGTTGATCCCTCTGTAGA",
    "PBM binding z-score": -0.212
  },
  {
    "construct sequence": "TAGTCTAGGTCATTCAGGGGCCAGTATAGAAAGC",
    "PBM binding z-score": 2.05
  },
  {
    "construct sequence": "TCTTGTAGATCAGCAGGTTAAGTAAGCTGGCCAA",
    "PBM binding z-score": -0.23
  },
  {
    "construct sequence": "CCTACCGGGCCAAAGGTCATTGATTCCAATGCTC",
    "PBM binding z-score": 3.7
  },
  {
    "construct sequence": "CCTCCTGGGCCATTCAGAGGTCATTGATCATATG",
    "PBM binding z-score": 6.14
  },
  {
    "construct sequence": "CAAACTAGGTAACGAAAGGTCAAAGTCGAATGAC",
    "PBM binding z-score": 6.74
  },
  {
    "construct sequence": "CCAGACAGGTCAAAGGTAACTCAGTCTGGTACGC",
    "PBM binding z-score": 0.903
  },
  {
    "construct sequence": "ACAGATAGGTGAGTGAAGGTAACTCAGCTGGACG",
    "PBM binding z-score": -0.209
  },
  {
    "construct sequence": "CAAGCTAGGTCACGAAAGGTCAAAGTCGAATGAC",
    "PBM binding z-score": 8.09
  },
  {
    "construct sequence": "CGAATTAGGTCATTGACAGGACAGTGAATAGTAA",
    "PBM binding z-score": 0.61
  },
  {
    "construct sequence": "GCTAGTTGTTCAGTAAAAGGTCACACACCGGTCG",
    "PBM binding z-score": 4.24
  },
  {
    "construct sequence": "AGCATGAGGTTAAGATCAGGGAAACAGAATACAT",
    "PBM binding z-score": 0.07
  },
  {
    "construct sequence": "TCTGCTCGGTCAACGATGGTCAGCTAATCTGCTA",
    "PBM binding z-score": -0.251
  },
  {
    "construct sequence": "CCGACTGGGGCATAAGGTTAACATAAGCCAGCCC",
    "PBM binding z-score": -0.335
  },
  {
    "construct sequence": "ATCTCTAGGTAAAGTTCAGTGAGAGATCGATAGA",
    "PBM binding z-score": 1.42
  },
  {
    "construct sequence": "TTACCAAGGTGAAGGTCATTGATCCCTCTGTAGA",
    "PBM binding z-score": 2.26
  },
  {
    "construct sequence": "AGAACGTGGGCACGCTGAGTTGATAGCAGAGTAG",
    "PBM binding z-score": -0.448
  },
  {
    "construct sequence": "CGAACGAGGGCATGAGTTGATACCAAATGCCGAT",
    "PBM binding z-score": -0.18
  },
  {
    "construct sequence": "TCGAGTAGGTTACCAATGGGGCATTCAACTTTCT",
    "PBM binding z-score": -0.293
  },
  {
    "construct sequence": "GCATATAGGTAAGACAAGGTGAAAGTCCGATTGT",
    "PBM binding z-score": -0.498
  },
  {
    "construct sequence": "GGAACGAGGGTAAAGTTGATAGCATCTGTCGACG",
    "PBM binding z-score": -0.531
  },
  {
    "construct sequence": "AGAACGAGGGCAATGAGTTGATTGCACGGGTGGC",
    "PBM binding z-score": -0.593
  },
  {
    "construct sequence": "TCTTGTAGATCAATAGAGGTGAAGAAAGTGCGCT",
    "PBM binding z-score": -0.122
  },
  {
    "construct sequence": "ATCTCTAGGTAACAATTTCAGTGAAAGAGAGGAC",
    "PBM binding z-score": 0.266
  },
  {
    "construct sequence": "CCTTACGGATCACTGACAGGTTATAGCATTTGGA",
    "PBM binding z-score": 0.768
  },
  {
    "construct sequence": "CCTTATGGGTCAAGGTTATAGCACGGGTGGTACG",
    "PBM binding z-score": 0.0856
  },
  {
    "construct sequence": "GGGACGAGGGCATTCGAGTTGATAGCATGGCGAT",
    "PBM binding z-score": -0.143
  },
  {
    "construct sequence": "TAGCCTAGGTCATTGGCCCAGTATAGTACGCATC",
    "PBM binding z-score": 1.34
  },
  {
    "construct sequence": "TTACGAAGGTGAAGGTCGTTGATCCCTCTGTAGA",
    "PBM binding z-score": -0.207
  },
  {
    "construct sequence": "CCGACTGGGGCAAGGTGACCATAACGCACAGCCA",
    "PBM binding z-score": -0.369
  },
  {
    "construct sequence": "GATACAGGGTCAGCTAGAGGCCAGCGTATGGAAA",
    "PBM binding z-score": -0.301
  },
  {
    "construct sequence": "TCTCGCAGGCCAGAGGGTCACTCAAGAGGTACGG",
    "PBM binding z-score": -0.517
  },
  {
    "construct sequence": "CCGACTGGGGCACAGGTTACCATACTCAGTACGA",
    "PBM binding z-score": -0.0129
  },
  {
    "construct sequence": "TTACAAAGGTGAAGGTCGTTGATCCCTCTGTAGA",
    "PBM binding z-score": 0.147
  },
  {
    "construct sequence": "AGTCAAAGTTCTGGACGAGGTAACGTAAAGCACG",
    "PBM binding z-score": -0.429
  },
  {
    "construct sequence": "CCTGCTAGGTCAATGGGCAGCTAAAGCAGCTCGC",
    "PBM binding z-score": -0.481
  },
  {
    "construct sequence": "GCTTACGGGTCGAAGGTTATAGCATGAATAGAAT",
    "PBM binding z-score": -0.187
  },
  {
    "construct sequence": "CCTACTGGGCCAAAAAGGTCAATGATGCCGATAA",
    "PBM binding z-score": 1.68
  },
  {
    "construct sequence": "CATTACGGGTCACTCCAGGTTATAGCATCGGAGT",
    "PBM binding z-score": 4.42
  },
  {
    "construct sequence": "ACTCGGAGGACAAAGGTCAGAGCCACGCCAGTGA",
    "PBM binding z-score": 1.53
  },
  {
    "construct sequence": "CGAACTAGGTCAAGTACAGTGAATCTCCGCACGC",
    "PBM binding z-score": 0.474
  },
  {
    "construct sequence": "GGAACGAGGACATTCGAGTTGATAGCATGGCGAT",
    "PBM binding z-score": -0.644
  },
  {
    "construct sequence": "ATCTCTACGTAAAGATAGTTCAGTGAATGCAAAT",
    "PBM binding z-score": 0.644
  }
]
